Biological target: Human immunodeficiency virus type 1 integrase (Human immunodeficiency virus 1, UniProt Q7ZJM1)
Sequence (Q7ZJM1 whole entry): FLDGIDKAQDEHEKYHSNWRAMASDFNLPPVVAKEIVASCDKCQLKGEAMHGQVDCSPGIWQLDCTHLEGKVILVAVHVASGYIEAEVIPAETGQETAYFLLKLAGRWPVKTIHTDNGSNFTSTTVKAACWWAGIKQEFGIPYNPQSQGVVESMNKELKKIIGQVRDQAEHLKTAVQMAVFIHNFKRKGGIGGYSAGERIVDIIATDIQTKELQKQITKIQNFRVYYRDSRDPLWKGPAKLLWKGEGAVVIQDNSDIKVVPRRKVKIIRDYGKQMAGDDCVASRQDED
MEASURE NAME: pIC50
Scale: negative log10 of molar concentration, which is what pIC50 denotes.

Q: Item under review: Oc1ccc2cc(-c3cccc(F)c3)ccc2c1O . Reported pIC50?
Ans: 5.02

Q: Query (compound): Oc1ccc2cc(-c3ccccc3)ccc2c1O ; field requested: pIC50
Ans: 5.22

Q: Look at this compound and give its reported pIC50. Oc1cc(-c2ccc3cc(O)c(O)c(O)c3c2)cc(O)c1O
Ans: 6.30

Q: // returns reported pIC50 for input Oc1cccc(-c2ccc3c(O)c(O)ccc3c2)c1O
Ans: 6.00

Q: Can you share its pIC50? I mean this compound: Oc1ccc2cc(-c3ccccc3F)ccc2c1O
Ans: 5.14

Q: So what does the record say about pIC50 for Oc1ccc(-c2ccc3c(O)c(O)ccc3c2)cc1 ?
Ans: 5.09

Q: pIC50 lookup needed for Oc1ccccc1-c1ccc2c(O)c(O)ccc2c1 , thanks.
Ans: 5.00

Q: Consider the compound shown here: O=C1C(=O)c2cc(-c3cc(O)c(O)c(O)c3)ccc2C(Oc2c(O)cc(-c3ccc4cc(O)c(O)c(O)c4c3)cc2O)=C1O What is its recorded pIC50?
Ans: 6.07

Q: What value of measured pIC50 is listed for Oc1ccc2cc(-c3ccc(C(F)(F)F)cc3)ccc2c1O ?
Ans: 5.00

Q: # query: pIC50 of entry Oc1ccc(-c2ccc3c(O)c(O)ccc3c2)cc1O
Ans: 5.66

Q: Entry under review: Oc1cccc(-c2ccc3c(O)c(O)ccc3c2)c1 . Reported pIC50?
Ans: 5.32
